Just for reference, patent US4468399A is where these values come from.

Target: H2 receptor (Rattus norvegicus, UniProt P25102)
Construct: uterine horns removed therefrom and suspended at ambient temperature in isolated organ baths; from tissue; host or cells: isolated uterine horn strips of estrone-treated female albino rats
Sequence (P25102 whole entry): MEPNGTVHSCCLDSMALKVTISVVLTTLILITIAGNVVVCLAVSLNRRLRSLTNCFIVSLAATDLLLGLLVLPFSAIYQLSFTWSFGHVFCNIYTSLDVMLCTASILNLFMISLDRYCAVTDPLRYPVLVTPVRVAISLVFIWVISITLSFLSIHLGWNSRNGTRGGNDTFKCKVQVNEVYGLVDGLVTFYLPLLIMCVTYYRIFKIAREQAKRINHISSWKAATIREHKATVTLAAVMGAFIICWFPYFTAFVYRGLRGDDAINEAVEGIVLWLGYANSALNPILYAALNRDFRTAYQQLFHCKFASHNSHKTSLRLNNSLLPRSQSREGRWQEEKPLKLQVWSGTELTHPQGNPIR
Assay: H2 receptor blocking activity, histamine-induced relaxation of isolated rat uterine strips
Format: cell-based, rat (female albino rats)
Settings: antagonist 10^-5 molar, 30 minutes, dissociation constant from dose ratio of histamine ED50; read-out: -logKb (converted)
The molecules listed here are annotated with their Kd.
Please format your answer as a value with the unit trailing.

| moleculeSmiles | assayTarget | Kd |
| --- | --- | --- |
| Cc1ccc(Cc2cnc(NCCSCc3csc(CN(C)C)n3)[nH]c2=O)cn1 | H2 receptor (Rattus norvegicus, UniProt P25102) | 11.2 nM |
| CN(C)Cc1nc(CSCCNc2ncc(Cc3cccnc3)c(=O)[nH]2)cs1 | H2 receptor (Rattus norvegicus, UniProt P25102) | 1.1 nM |
| CN(C)Cc1nc(CSCCNc2ncc(Cc3ccncc3)c(=O)[nH]2)cs1 | H2 receptor (Rattus norvegicus, UniProt P25102) | 12.9 nM |
| CN(C)Cc1nc(CSCCNc2ncc(Cc3ccccn3)c(=O)[nH]2)cs1 | H2 receptor (Rattus norvegicus, UniProt P25102) | 17.4 nM |

Proceeding to the next molecule to report its Kd.
I have this molecule here, Cc1cc(Cc2cnc(NCCSCc3csc(CN(C)C)n3)[nH]c2=O)cnc1C , and I need its recorded Kd. 3.89 nM
